Target: full length recombinant human Src kinase (Homo sapiens)
Construct: full length recombinant human Src kinase; purchased Upstate Biotechnology 14-117; host or cells: baculo viral cells (baculovirus expression)
Experiment: Src inhibition assay (33P incorporation into poly Glu-Tyr)
Format: biochemical
Details: at a 2 μM inhibitor concentration; read-out: Activity in the SRC Inhibition Assay (percent inhibition rating D-F)
Procedure: The compounds were assayed as inhibitors of full length recombinant human Src kinase (from Upstate Biotechnology, cat. no. 14-117) expressed and purified from baculo viral cells. Src kinase activity was monitored by following the incorporation of ^33P from ATP into the tyrosine of a random poly Glu-Tyr polymer substrate of composition, Glu:Tyr=4:1 (Sigma, cat. no. P-0275). […]
QUANTITY: inhibition at 2 µM

Here is how some molecules turned out for inhibition at 2 µM.
{"SUBSTANCE SMILES": "COc1cc(-c2ccnc(Nc3ccc(C)cc3)n2)cc2c1OCCO2", "inhibition at 2 µM": "< 33%"}
{"SUBSTANCE SMILES": "COc1cc(-c2ccnc(Nc3ccc(Cl)nc3)n2)cc(OC)c1O", "inhibition at 2 µM": "24 to 66%"}
{"SUBSTANCE SMILES": "COc1cc(-c2ccnc(Nc3ccc(Cl)nc3)n2)cc(OC)c1OC", "inhibition at 2 µM": "< 33%"}

The record that follows has no inhibition at 2 µM shown yet.
// returns reported inhibition at 2 µM for input `COc1cc(-c2ccnc(Nc3ccccc3)n2)cc2c1OCCO2` 24 to 66%

---

Measured pKi of individual entries
Molecular target: full length recombinant human Src kinase (Homo sapiens)
Construct: full length recombinant human Src kinase
Assay: Src inhibition assay (33P incorporation into poly Glu-Tyr)
Settings: 10 μM ATP; read-out: Activity in the SRC Inhibition Assay (Ki rating A-C)
Protocol: The compounds were assayed as inhibitors of full length recombinant human Src kinase (from Upstate Biotechnology, cat. no. 14-117) expressed and purified from baculo viral cells. Src kinase activity was monitored by following the incorporation of ^33P from ATP into the tyrosine of a random poly Glu-Tyr polymer substrate of composition, Glu:Tyr=4:1 (Sigma, cat. no. P-0275). […]
pKi: −log10 of the molar value.

A selection of reference data follows.
{"COMPOUND": "COc1ccc(-c2cccc(F)c2)cc1Nc1nccc(-c2ccc(OC)c(OC)c2OC)n1 [II-64]", "QUANTITY": "pKi", "RECORDED RESULT": "> 7.00"}
{"COMPOUND": "COc1cc(-c2ccnc(Nc3ccc(Cl)cc3)n2)cc(OC)c1OC [Compound I-1]", "QUANTITY": "pKi", "RECORDED RESULT": "< 6.00"}
{"COMPOUND": "COc1ccc(Nc2nccc(-c3ccc(OC)c(OC)c3OC)n2)cc1-c1cccc(Cl)c1 [II-67]", "QUANTITY": "pKi", "RECORDED RESULT": "> 7.00"}

Quick one: pKi for COc1cc(-c2ccnc(NC3CCCCC3)n2)cc(OC)c1OC [Compound I-4] ? < 6.00

Look up pKi: COc1ccc(-c2ccnc(Nc3cccc(-c4ccccc4C)c3)n2)c(OC)c1OC [II-62] 6.00 to 7.00

---

# Ki per entry
target: activated JNK3 (Homo sapiens, UniProt P53779); construct: One such construct encodes amino acid residues Ser40-Glu402 of JNK3α1 and is preceded by Met and Gly residues; Met-Gly (initiator methionine and added glycine) (N); assay: JNK inhibition assay (spectrophotometric coupled-enzyme assay); conditions: 10 nM activated JNK3, 10 μM ATP; read-out: Activity in the JNK3 Inhibition Assay (Ki rating A-C)
Sequence (P53779 40-402): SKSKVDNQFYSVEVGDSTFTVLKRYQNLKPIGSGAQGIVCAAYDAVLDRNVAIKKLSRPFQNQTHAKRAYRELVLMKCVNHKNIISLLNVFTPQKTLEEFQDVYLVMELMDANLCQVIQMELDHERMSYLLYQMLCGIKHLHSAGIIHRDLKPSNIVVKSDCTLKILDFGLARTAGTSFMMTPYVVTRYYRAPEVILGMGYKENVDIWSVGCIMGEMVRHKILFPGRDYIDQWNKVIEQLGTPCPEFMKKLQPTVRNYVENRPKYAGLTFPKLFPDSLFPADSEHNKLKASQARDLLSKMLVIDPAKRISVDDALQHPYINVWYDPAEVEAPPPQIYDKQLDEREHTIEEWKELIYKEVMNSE

{"MOLECULE": "COc1cc(-c2ccnc(Nc3ccccc3C)n2)cc(OC)c1OC [Compound I-16]", "Ki": "< 100 nM"}

Consider the molecule shown here: `COc1cc(-c2ccnc(Nc3ccc([N+](=O)[O-])cc3)n2)cc(OC)c1OC` What is its recorded Ki? < 100 nM

Reported Ki for `COc1cc(-c2ccnc(Nc3cc(C)n[nH]3)n2)cc(OC)c1OC` : what is it? 100 to 1000 nM

// returns reported Ki for input `COc1cccc(Nc2ncnc(Nc3nccc(-c4ccc(OC)c(OC)c4OC)n3)n2)c1` > 1000 nM

Report Ki for `COc1c(Br)cc(-c2ccnc(Nc3cccc(F)c3)n2)cc1Br` please. 100 to 1000 nM

---

biological target: activated JNK3 (Homo sapiens, UniProt P53779); construct: One such construct encodes amino acid residues Ser40-Glu402 of JNK3α1 and is preceded by Met and Gly residues; Met-Gly (initiator methionine and added glycine) (N); experiment: JNK inhibition assay (spectrophotometric coupled-enzyme assay); conditions: 10 nM activated JNK3, 10 μM ATP; read-out: Activity in the JNK3 Inhibition Assay (Ki rating A-C)
Entries and their measured Ki follow.

For orientation, consider the following solved cases.
{"MOLECULE": "COc1cc(-c2ccnc(Nc3cccc(Cl)c3)n2)cc(OC)c1OC [Compound I-18]", "Ki": "< 100 nM"}
{"MOLECULE": "COc1cc(-c2ccnc(Nc3cccc(F)c3)n2)cc(OC)c1OCCN1CCOCC1 [Compound I-44]", "Ki": "< 100 nM"}
{"MOLECULE": "COc1cc(-c2ccnc(Nc3cccc(C)c3)n2)cc2c1OCO2 [Compound I-27]", "Ki": "> 1000 nM"}
{"MOLECULE": "COc1cc(-c2ccnc(Nc3c(F)cccc3F)c2)cc(OC)c1OC [Compound I-151]", "Ki": "100 to 1000 nM"}
{"MOLECULE": "COc1c(C)cc(-c2ccnc(Nc3cccc(Cl)c3)n2)cc1C [Compound I-42]", "Ki": "< 100 nM"}

Please examine the following record next.
Field request: Ki | item: COc1cc(-c2ccnc(Nc3ccc(F)cc3)n2)cc(OC)c1OC [Compound I-3] < 100 nM

---

Each item that follows carries a reported pKi.
molecular target: Lck kinase purified from bovine thymus (Bos taurus, UniProt Q3ZCM0); construct: Lck kinase purified from bovine thymus; purchased Upstate Biotechnology 14-106; host or cells: bovine thymus (tissue-purified); experiment: Lck inhibition assay (33P incorporation into poly Glu-Tyr); assay type: biochemical; conditions: 10 μM ATP; read-out: Activity in the Lck Inhibition Assay (Ki rating A-C)
Sequence (Q3ZCM0 1-509): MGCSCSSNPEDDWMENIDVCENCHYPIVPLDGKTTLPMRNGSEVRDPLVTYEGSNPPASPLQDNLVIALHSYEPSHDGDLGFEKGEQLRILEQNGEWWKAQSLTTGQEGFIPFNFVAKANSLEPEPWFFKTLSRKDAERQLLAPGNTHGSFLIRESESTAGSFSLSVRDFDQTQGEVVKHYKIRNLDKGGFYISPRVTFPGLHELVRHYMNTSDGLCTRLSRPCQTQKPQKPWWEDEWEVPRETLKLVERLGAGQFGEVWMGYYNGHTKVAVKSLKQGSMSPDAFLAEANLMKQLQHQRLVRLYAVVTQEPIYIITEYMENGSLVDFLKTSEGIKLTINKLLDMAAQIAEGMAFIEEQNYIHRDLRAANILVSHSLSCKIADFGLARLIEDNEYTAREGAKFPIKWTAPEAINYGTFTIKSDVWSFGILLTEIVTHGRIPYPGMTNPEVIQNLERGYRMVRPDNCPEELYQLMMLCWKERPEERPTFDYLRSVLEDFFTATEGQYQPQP
pKi: −log10 of the molar value.

See these solved cases before continuing.
{"SUBSTANCE SMILES": "COc1ccc(Nc2nccc(-c3ccc(OC)c(OC)c3OC)n2)cc1O", "pKi": "6.00 to 7.00"}
{"SUBSTANCE SMILES": "COc1ccc(-c2ccnc(Nc3cccc(Cc4ccccc4)c3)n2)c(OC)c1OC", "pKi": "6.00 to 7.00"}

Switching to the query record.
Find pKi (Lck kinase purified from bovine thymus (Bos taurus, UniProt Q3ZCM0)) for the entry `COc1ccc(-c2ccnc(Nc3cccc(-c4ccc(C)cc4)c3)n2)c(OC)c1OC` 6.00 to 7.00

---

biological target: full length recombinant human Src kinase (Homo sapiens, UniProt P12931); construct: full length recombinant human Src kinase; purchased Upstate Biotechnology 14-117; host or cells: baculo viral cells (baculovirus expression); assay: Src inhibition assay (33P incorporation into poly Glu-Tyr); format: biochemical; conditions: at a 2 μM inhibitor concentration; read-out: Activity in the SRC Inhibition Assay (percent inhibition rating D-F)
Sequence (P12931 whole entry): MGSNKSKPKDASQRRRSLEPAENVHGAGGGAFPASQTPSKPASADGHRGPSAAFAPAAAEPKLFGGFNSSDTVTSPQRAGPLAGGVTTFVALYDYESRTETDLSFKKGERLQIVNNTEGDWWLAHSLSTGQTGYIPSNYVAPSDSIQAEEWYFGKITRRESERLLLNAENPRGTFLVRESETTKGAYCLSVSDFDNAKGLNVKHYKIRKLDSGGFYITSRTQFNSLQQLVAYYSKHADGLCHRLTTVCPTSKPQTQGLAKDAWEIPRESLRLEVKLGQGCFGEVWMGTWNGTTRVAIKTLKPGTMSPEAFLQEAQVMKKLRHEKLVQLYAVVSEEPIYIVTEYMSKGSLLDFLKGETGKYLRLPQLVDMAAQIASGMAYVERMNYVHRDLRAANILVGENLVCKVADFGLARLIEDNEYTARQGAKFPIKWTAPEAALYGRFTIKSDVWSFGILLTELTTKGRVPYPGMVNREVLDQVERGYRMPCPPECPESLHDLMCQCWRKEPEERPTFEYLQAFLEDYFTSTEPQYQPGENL
Listed below: inhibition at 2 µM values for each entry.

Completed entries (count: 5):
{"SUBSTANCE SMILES": "COc1cc(-c2ccnc(Nc3cccc(F)c3)n2)cc2c1OCCO2", "TARGET UNDER TEST": "full length recombinant human Src kinase (Homo sapiens, UniProt P12931)", "RECORDED RESULT": "24 to 66%"}
{"SUBSTANCE SMILES": "COc1cc(-c2ccnc(Nc3cccc(Cl)c3)n2)cc2c1OCCO2", "TARGET UNDER TEST": "full length recombinant human Src kinase (Homo sapiens, UniProt P12931)", "RECORDED RESULT": "67 to 100%"}
{"SUBSTANCE SMILES": "COc1cc(-c2ccnc(Nc3cccc(C)c3)n2)cc2c1OCCO2", "TARGET UNDER TEST": "full length recombinant human Src kinase (Homo sapiens, UniProt P12931)", "RECORDED RESULT": "67 to 100%"}
{"SUBSTANCE SMILES": "COc1c(Br)cc(-c2ccnc(Nc3cccc(F)c3)n2)cc1Br", "TARGET UNDER TEST": "full length recombinant human Src kinase (Homo sapiens, UniProt P12931)", "RECORDED RESULT": "24 to 66%"}
{"SUBSTANCE SMILES": "COc1cc(-c2ccnc(Nc3ccc(F)cc3)n2)cc2c1OCCO2", "TARGET UNDER TEST": "full length recombinant human Src kinase (Homo sapiens, UniProt P12931)", "RECORDED RESULT": "24 to 66%"}

Reported inhibition at 2 µM for `COc1ccc(Nc2nccc(-c3cc(OC)c(OC)c(OC)c3)n2)cc1OC` : what is it? 67 to 100%

// query inhibition at 2 µM value for entry `COc1cc(-c2ccnc(Nc3cccc(O)c3)n2)cc(OC)c1OC` 24 to 66%

Endpoint output: inhibition at 2 µM of `COc1cc(Nc2nccc(-c3cc(OC)c(OC)c(OC)c3)n2)cc(OC)c1` . Value? < 33%
